// data source = patent US10183949B2

- target under test: Human autotaxin enzyme (Homo sapiens, UniProt Q13822)
- Construct: purchased R&D System
- test details: Evaluation of autotaxin inhibitor, 18:0 Lyso PC / choline assay (Test Example 2)
- Type: biochemical
- study conditions: human autotaxin enzyme, 18:0 Lyso PC substrate, choline assay, room temperature 2 hours; read-out: Inhibitor activity (IC50)
- Description: Solution B containing 100 mM Tris-HCl buffer (pH7.5), 150 mM NaCl, 5 mM MgCl2, and 0.05% Triton X-100 was prepared. Human autotaxin enzyme (purchased from R&D System) was diluted with Solution B, and 2.5 μl of which was added to a solution of test compound in DMSO. […] The fluorescent dye Resorufin, which was produced by the reaction, was detected. The fluorescence was detected using ViewLux (PerkinElmer, Inc.) with a excitation wavelength of 531 nm and a fluorescence wavelength of 598 nm. […]
recorded endpoint: IC50

[[record]]
compound = "CCCCCc1nc(-c2ccc(Cl)cc2)cc(=O)n1CC(=O)NC(Cc1ccccc1)C(=O)O (stereo not shown)"
recorded_endpoint = "IC50"
observed_measurement = "< 10 nM"

[[record]]
compound = "CCCCCc1nc(-c2ccc(Cl)cc2)cc(=O)n1CC(=O)NC(C)(C)C(=O)O"
recorded_endpoint = "IC50"
observed_measurement = "< 10 nM"

[[record]]
compound = "COC(=O)Nc1cc(C#N)ccc1-c1cc(=O)n(CC(=O)NCC2CNC(=O)O2)c(C)n1 (stereo not shown)"
recorded_endpoint = "IC50"
observed_measurement = "10 to 100 nM"


# next compound below
# return recorded IC50 for input CC(C)(O)CN1CCN(C(=O)Cn2c(CCCC(F)(F)F)nc(-c3ccc(Cl)cc3)cc2=O)CC1
100 to 1000 nM

* * *

- target under test: Human autotaxin enzyme (Homo sapiens)
- Construct: purchased R&D System
- test details: Evaluation of autotaxin inhibitor, 18:0 Lyso PC / choline assay (Test Example 2)
- Format: biochemical
- study conditions: human autotaxin enzyme, 18:0 Lyso PC substrate, choline assay, room temperature 2 hours; read-out: Inhibitor activity (IC50)
pIC50: −log10 of the molar value.
pIC50 values for the molecules below.

Example results:
[[record]]
molecule = "CCCCCc1nc(-c2ccc(Cl)cc2)cc(=O)n1CC(=O)NC1CCCNC1=O (stereo not shown) [Compound I-0082]"
observed_measurement = "6.00 to 7.00"

[[record]]
molecule = "CC1(C)CN(c2cc(=O)n(CC(=O)NC3(C#N)CC3)c(CCCC(F)(F)F)n2)C1 [Compound I-0236]"
observed_measurement = "≤ 6.00"

[[record]]
molecule = "CCCCCc1nc(-c2ccc(Cl)cc2)cc(=O)n1CC(=O)N1CCC(c2cccc(C(=O)O)c2)CC1 [Compound I-0053]"
observed_measurement = "7.00 to 8.00"


Pending molecule:
Give a short answer stating reported pIC50 for COC(=O)Nc1cc(Cl)ccc1-c1cc(=O)n(CC(=O)N(C)C(C)(C)CO)c(C)n1 [Compound I-0277] .
7.00 to 8.00

* * *

# reported IC50; entries follow
- target under test: Human autotaxin enzyme (Homo sapiens)
- Construct: purchased R&D System
- test details: Evaluation of autotaxin inhibitor, 18:0 Lyso PC / choline assay (Test Example 2)
- Format: biochemical
- study conditions: human autotaxin enzyme, 18:0 Lyso PC substrate, choline assay, room temperature 2 hours; read-out: Inhibitor activity (IC50)

Field: example entries. Status: answers known.
[[record]]
compound = "CCOCCc1nc(-c2ccc(Cl)cc2)cc(=O)n1CC(=O)NCC(C)(C)O"
observed_measurement = "100 to 1000 nM"

[[record]]
compound = "COC(=O)Nc1cc(C#N)ccc1-c1cc(=O)n(CC(=O)N2CCN(C(N)=O)CC2)c(C)n1"
observed_measurement = "10 to 100 nM"

[[record]]
compound = "NC(=O)C1CCN(C(=O)Cn2c(CCCC(F)(F)F)nc(-c3ccc(C(F)(F)F)cc3)cc2=O)CC1"
observed_measurement = "10 to 100 nM"


Next:
Recall the reported IC50 of CCCCCc1nc(-c2ccc(Cl)cc2)cc(=O)n1CC(=O)NC12CCC(C(=O)O)(CC1)CC2 on Human autotaxin enzyme (Homo sapiens) and write it down.
< 10 nM
